Data credit: ChEMBL document CHEMBL1201861

System: Daudi
experimental protocol: cells
Assay type: functional, cell-based, Homo sapiens
measurement setup: Homo sapiens, Daudi
Description: SANGER: Inhibition of human Daudi cell growth in a cell viability assay.
pIC50: −log10 of the molar value.
observation type: pIC50

structure string: Cc1ccc(C(=O)Nc2ccc(CN3CCN(C)CC3)c(C(F)(F)F)c2)cc1C#Cc1cnc2cccnn12
test system: Daudi
pIC50: 7.60
--
structure string: C/C(=C\c1csc(C)n1)[C@@H]1C[C@@H]2O[C@]2(C)CCC[C@H](C)[C@H](O)[C@@H](C)C(=O)C(C)(C)[C@@H](O)CC(=O)O1
test system: Daudi
pIC50: 7.61
--
structure string: C[C@@H](Oc1cc(-c2cnn(C3CCNCC3)c2)cnc1N)c1c(Cl)ccc(F)c1Cl
test system: Daudi
pIC50: < 5.70
--
structure string: COC(=O)[C@H](CCSC)NC(=O)c1ccc(NC[C@@H](N)CS)cc1-c1ccccc1
test system: Daudi
pIC50: < 5.99
--
structure string: COc1ccc(-c2cc3nccn3c(Nc3ncccc3C(N)=O)n2)cc1OC
test system: Daudi
pIC50: 6.22
--
structure string: Cc1cc(N2CCOCC2)cc2[nH]c(-c3c(NC[C@@H](O)c4cccc(Cl)c4)cc[nH]c3=O)nc12
test system: Daudi
pIC50: < 5.29
--
structure string: OC[C@H](Cc1ccccc1)Nc1nc(Oc2ccc3c(c2)CCC3)nc2c1ncn2Cc1ccc(-c2ccccc2)cc1
test system: Daudi;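 note: growth inhibition of Daudi cells, read out by a viability assay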
pIC50: < 4.99

Now look at this one.
Query :: Quickly give me recorded pIC50 for O=S(=O)(O)c1ccc2cc(/N=N/c3cc(S(=O)(=O)O)c4cccnc4c3O)ccc2c1
Result :: < 4.80

* * *

System: MONO-MAC-6
experimental protocol: cells
Format: functional, cell-based, Homo sapiens
measurement setup: Homo sapiens, MONO-MAC-6
Description: SANGER: Inhibition of human MONO-MAC-6 cell growth in a cell viability assay.
Where a SMILES comes first, the peptide text is derived from it. The star is where a group is joined. Cbz = O=C(OCc1ccccc1)*
observation type: IC50 (nM)
Kindly answer with a numeric value in nM, unit omitted.

// worked examples, IC50 included
molecule: CC(C)C[C@H](NC(=O)[C@H](Cc1ccccc1)NC(=O)c1cnccn1)B(O)O
test system: MONO-MAC-6
unit symbol: nM
IC50: 3.1
--
molecule: CC(C)C[C@@H](C=O)NC(=O)[C@H](CC(C)C)NC(=O)[C@H](CC(C)C)NC(=O)OCc1ccccc1 [MG-132] (Cbz-Leu-Leu-Leu-aldehyde)
test system: MONO-MAC-6
unit symbol: nM
IC50: 536
--
molecule: COc1cc(N2CCC(N3CCN(C)CC3)CC2)ccc1Nc1ncc(Cl)c(Nc2ccccc2S(=O)(=O)C(C)C)n1
test system: MONO-MAC-6;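 note: cell viability assay measuring growth inhibition of human MONO-MAC-6 cells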
unit symbol: nM
IC50: 333

Now look at this one.
Query :: Quickly give me recorded IC50 for Nc1ccccc1NC(=O)c1ccc(CNC(=O)OCc2cccnc2)cc1
Result :: 388

* * *

System: UMC-11;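 note: growth inhibition of UMC-11 cells, read out with a cell viability assay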
experimental protocol: cells
Assay type: functional, cell-based
measurement setup: Homo sapiens
Description: SANGER: Inhibition of human UMC-11 cell growth in a cell viability assay.
pIC50: −log10 of the molar value.
Below, each of the compounds is paired with its reported pIC50 value.

Query :: Check UMC-11 data and give pIC50 for O=C(NCCCNc1nc(Nc2cccc(NC(=O)N3CCCC3)c2)ncc1I)c1cccs1 .
Result :: 5.54

Query :: Check UMC-11 data and give pIC50 for O=C1NC(=O)c2c1c(-c1ccccc1Cl)cc1[nH]c3ccc(O)cc3c21 .
Result :: < 5.70

Query :: Check UMC-11 data and give pIC50 for OC[C@H](Cc1ccccc1)Nc1nc(Oc2ccc3c(c2)CCC3)nc2c1ncn2Cc1ccc(-c2ccccc2)cc1 .
Result :: < 4.99

Query :: Check UMC-11 data and give pIC50 for CN(NC(=O)CC(=O)NN(C)C(=S)c1ccccc1)C(=S)c1ccccc1 .
Result :: < 6.70

Query :: Check UMC-11 data and give pIC50 for NC(=O)c1ccc(N(C(N)=O)c2c(F)cccc2F)nc1-c1ccc(F)cc1F .
Result :: < 5.70

Query :: Check UMC-11 data and give pIC50 for CC1=C(/C=C/C(C)=C/C=C/C(C)=C/C(=O)O)C(C)(C)CCC1 .
Result :: < 5.00

* * *

Tested on: MG-63
experimental protocol: cells
Format: functional, cell-based
measurement setup: Homo sapiens
Description: SANGER: Inhibition of human MG-63 cell growth in a cell viability assay.
pIC50: −log10 of the molar value.
Below, each of the compounds is paired with its reported pIC50 value.

// worked examples, pIC50 included
structure string: CC1=C(/C=C/C(C)=C/C=C/C(C)=C/C(=O)O)C(C)(C)CCC1
test system: MG-63
reported measurement: < 5.00

structure string: COC(=O)[C@H](CCSC)NC(=O)c1ccc(NC[C@@H](N)CS)cc1-c1ccccc1
test system: MG-63
reported measurement: < 5.99

structure string: CN(NC(=O)CC(=O)NN(C)C(=S)c1ccccc1)C(=S)c1ccccc1
test system: MG-63
reported measurement: < 6.70

Now look at this one.
Query :: Quickly give me recorded pIC50 for CS(=O)(=O)N1CCN(Cc2cc3nc(-c4cccc5[nH]ncc45)nc(N4CCOCC4)c3s2)CC1
Result :: 6.27

* * *

Test system: NCI-H1155;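 note: cell growth inhibition measured by a viability assay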
experimental protocol: cells
Format: functional, cell-based, Homo sapiens
measurement setup: Homo sapiens, NCI-H1155
Description: SANGER: Inhibition of human NCI-H1155 cell growth in a cell viability assay.
observation type: IC50

// worked examples, IC50 included
compound: Cc1ccc(C(=O)Nc2ccc(CN3CCN(C)CC3)c(C(F)(F)F)c2)cc1C#Cc1cnc2cccnn12 [PONATINIB]
IC50: > 0.512 µM
--
compound: CC1=C(/C=C/C(C)=C/C=C/C(C)=C/C(=O)O)C(C)(C)CCC1 [TRETINOIN]
IC50: > 10 µM
--
compound: C/C(=C\c1csc(C)n1)[C@@H]1C[C@@H]2O[C@]2(C)CCC[C@H](C)[C@H](O)[C@@H](C)C(=O)C(C)(C)[C@@H](O)CC(=O)O1 [PATUPILONE]
IC50: > 0.032 µM

Query :: Quickly give me recorded IC50 for COc1ccc(-c2cc3nccn3c(Nc3ncccc3C(N)=O)n2)cc1OC
Result :: > 8 µM

* * *

Test system: ACHN;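 note: cell viability read-out used to gauge how strongly growth of human ACHN cells is suppressed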
experimental protocol: cells
Assay type: functional, cell-based
measurement setup: Homo sapiens
Description: SANGER: Inhibition of human ACHN cell growth in a cell viability assay.
observation type: IC50 (nM)
Kindly answer with a numeric value in nM, unit omitted.

molecule: C/C(=C\c1csc(C)n1)[C@@H]1C[C@@H]2O[C@]2(C)CCC[C@H](C)[C@H](O)[C@@H](C)C(=O)C(C)(C)[C@@H](O)CC(=O)O1 [PATUPILONE]
unit symbol: nM
IC50: 0.749

Query :: Check ACHN data and give IC50 for NC(=O)Nc1cc(-c2cccc(F)c2)sc1C(=O)N[C@H]1CCCNC1 [AZD-7762] .
Result :: 134

* * *

Tested on: HT
experimental protocol: cells
Assay type: functional, cell-based, Homo sapiens
measurement setup: Homo sapiens, HT
Description: SANGER: Inhibition of human HT cell growth in a cell viability assay.
pIC50: −log10 of the molar value.
Below, each of the molecules is paired with its reported pIC50 value.

// worked examples, pIC50 included
structure string: CN(NC(=O)CC(=O)NN(C)C(=S)c1ccccc1)C(=S)c1ccccc1
pIC50: < 6.70
//
structure string: COc1cc(N2CCC(N3CCN(C)CC3)CC2)ccc1Nc1ncc(Cl)c(Nc2ccccc2S(=O)(=O)C(C)C)n1
pIC50: < 5.70
//
structure string: CCCCCCCCCCCC1=C(O)C(=O)C=C(O)C1=O
pIC50: 5.26
//
structure string: O=C(NCCCNc1nc(Nc2cccc(NC(=O)N3CCCC3)c2)ncc1I)c1cccs1
pIC50: < 5.30
//
structure string: NC(=O)c1cccc(-c2cc(Nc3ccc(OC(F)(F)F)cc3)ncn2)c1
pIC50: < 5.89

Query :: Quickly give me recorded pIC50 for CC1=C(/C=C/C(C)=C/C=C/C(C)=C/C(=O)O)C(C)(C)CCC1
Result :: < 5.00

* * *

Tested on: COLO-829
experimental protocol: cells
Type: functional, cell-based, Homo sapiens
measurement setup: Homo sapiens, COLO-829
Description: SANGER: Inhibition of human COLO-829 cell growth in a cell viability assay.
observation type: IC50

// worked examples, IC50 included
structure string: OC[C@H](Cc1ccccc1)Nc1nc(Oc2ccc3c(c2)CCC3)nc2c1ncn2Cc1ccc(-c2ccccc2)cc1
IC50: > 10.2 µM
//
structure string: O=S(=O)(O)c1ccc2cc(/N=N/c3cc(S(=O)(=O)O)c4cccnc4c3O)ccc2c1
IC50: > 16 µM
//
structure string: CC1(C)CCC(c2ccc(Cl)cc2)=C(CN2CCN(c3ccc(C(=O)NS(=O)(=O)c4ccc(N[C@H](CCN5CCOCC5)CSc5ccccc5)c(S(=O)(=O)C(F)(F)F)c4)cc3)CC2)C1
IC50: > 2 µM
//
structure string: NC(=O)Nc1cc(-c2cccc(F)c2)sc1C(=O)N[C@H]1CCCNC1
IC50: 0.298 µM
//
structure string: Nc1ccccc1NC(=O)c1ccc(CNC(=O)OCc2cccnc2)cc1
IC50: 1.54 µM

Query :: Quickly give me recorded IC50 for NC(=O)c1ccc(N(C(N)=O)c2c(F)cccc2F)nc1-c1ccc(F)cc1F
Result :: > 2 µM

Query :: Quickly give me recorded IC50 for CS(=O)(=O)N1CCN(Cc2cc3nc(-c4cccc5[nH]ncc45)nc(N4CCOCC4)c3s2)CC1
Result :: > 4 µM

Query :: Quickly give me recorded IC50 for COc1ccc(-c2cc3nccn3c(Nc3ncccc3C(N)=O)n2)cc1OC
Result :: > 8 µM

Query :: Quickly give me recorded IC50 for NC(=O)c1cccc(-c2cc(Nc3ccc(OC(F)(F)F)cc3)ncn2)c1
Result :: > 1.28 µM
